As shown below, each of these compounds has a reported pest or weed control at 250 g/ha value.
- Tested on: Avena fatua (AVEFA)
- test-description: Example B post-emergence herbicidal activity
- Format: in vivo
- condition-set: 312 h, rate 250 g/ha, evaluated after 13 days, read-out: Post-emergence activity AVEFA (100=total damage to plant; 0=no damage to plant)
measurement-label: pest or weed control at 250 g/ha (%)

* CCc1sc(-c2ccc(Br)cc2F)nc1C1C(=O)[C@@H]2CC[C@@H](C2)C1=O (some centres unmarked) | 100
* Cc1sc(-c2ccc(C(F)(F)F)cc2)nc1C1C(=O)[C@@H]2CC[C@@H](C2)C1=O (some centres unmarked) | 80
* Cc1sc(-c2ccccc2)nc1C1C(=O)[C@@H]2CC[C@@H](C2)C1=O (some centres unmarked) | 0
* CCc1sc(-c2cccc(Cl)c2Cl)nc1C1C(=O)[C@@H]2CC[C@@H](C2)C1=O (some centres unmarked) | 0
* Cc1sc(-c2ccc(Cl)cc2Cl)nc1C1C(=O)[C@@H]2CC[C@@H](C2)C1=O (some centres unmarked) | 60
* Cc1sc(-c2ccc(OC(F)F)cc2)nc1C1C(=O)[C@@H]2CC[C@@H](C2)C1=O (some centres unmarked) | 70
* Cc1sc(-c2ccc(C(C)C)cc2)nc1C1C(=O)[C@@H]2CC[C@@H](C2)C1=O (some centres unmarked) | 60
* Cc1sc(-c2ccc(Cl)cc2)nc1C1C(=O)[C@H]2C[C@@H](C1=O)C2(C)C (some centres unmarked) | 60
